- TARGET SYSTEM: RORγt (Homo sapiens)
- Sequence (P51449 1-497 isoform P51449-2): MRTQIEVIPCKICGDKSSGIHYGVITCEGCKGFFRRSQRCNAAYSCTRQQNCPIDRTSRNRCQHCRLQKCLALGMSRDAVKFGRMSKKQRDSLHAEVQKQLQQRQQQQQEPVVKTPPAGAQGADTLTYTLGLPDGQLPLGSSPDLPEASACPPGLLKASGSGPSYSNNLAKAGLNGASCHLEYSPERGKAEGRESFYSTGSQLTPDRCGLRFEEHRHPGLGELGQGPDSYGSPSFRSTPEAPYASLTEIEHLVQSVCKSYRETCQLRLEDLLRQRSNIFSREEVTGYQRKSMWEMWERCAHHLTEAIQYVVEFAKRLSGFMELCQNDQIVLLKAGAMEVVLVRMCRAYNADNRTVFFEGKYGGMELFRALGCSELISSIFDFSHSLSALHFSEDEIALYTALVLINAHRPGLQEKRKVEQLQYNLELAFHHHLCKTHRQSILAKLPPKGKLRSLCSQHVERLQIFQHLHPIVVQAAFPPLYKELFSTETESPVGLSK
- TEST METHOD NOTES: Jurkat reporter test (human IL-17 ROR response element luciferase)
- Format: cell-based
- REPORTED CONDITIONS: test compound 3 μM; Jurkat cells transfected with IL-17 ROR response element luciferase reporter and RORγt vector; cultured overnight; read-out: luminescence level inhibitory rate
Everything with inhibition at 3 µM lower than 90% is class 0; everything else, including exactly 90%, is class 1.

line_notation=CCCN(Cc1ccccc1)C(=O)Cc1csc(-c2cnn(C(C)(C)C)c2-c2ccc(F)cc2)n1 target_system="RORγt (Homo sapiens)" category_label="class 0"
line_notation=O=C(Cc1csc(-c2cnn(C3CCCCC3)c2-c2ccc(F)cc2)n1)NCC1CCOCC1 target_system="RORγt (Homo sapiens)" category_label="class 1"
line_notation=COc1ccc(-c2c(-c3nc(CC(=O)NCC4CCOCC4)cs3)cnn2C(C)(C)C)cc1F target_system="RORγt (Homo sapiens)" category_label="class 1"
line_notation=CC(C)(C)n1ncc(-c2nc(CC(=O)NCC3CCOCC3)cs2)c1-c1ccc(F)cc1 target_system="RORγt (Homo sapiens)" category_label="class 0"
line_notation=COc1ccc(-c2c(-c3nc(CC(=O)NCC4CCOCC4)cs3)cnn2C(C)(C)C)cc1 target_system="RORγt (Homo sapiens)" category_label="class 1"
line_notation=CC(C)(C)n1ncc(-c2nc(CC(=O)NCC3CCOCC3)cs2)c1-c1ccccc1 target_system="RORγt (Homo sapiens)" category_label="class 0"
line_notation=CN(Cc1ccncc1)C(=O)Cc1csc(-c2cnn(C(C)(C)C)c2-c2ccc(F)cc2)n1 target_system="RORγt (Homo sapiens)" category_label="class 0"
line_notation=CC(C)(C)n1ncc(-c2nc(CC(=O)NCC3CCOCC3)cs2)c1-c1cc2ccccc2s1 target_system="RORγt (Homo sapiens)" category_label="class 1"
line_notation=CC(C)(C)n1ncc(-c2nc(CC(=O)NCc3ccc(-n4ccnc4)cc3)cs2)c1-c1ccc(F)cc1 target_system="RORγt (Homo sapiens)" category_label="class 1"
line_notation=CC(C)(C)n1ncc(-c2nc(CC(=O)NCC3CCOCC3)cs2)c1-c1ccc(C#N)cc1 target_system="RORγt (Homo sapiens)" category_label="class 1"
line_notation=CC(C)(C)n1ncc(-c2nc(CC(=O)NCC3CCOCC3)cs2)c1-c1ccc(Cl)cc1 target_system="RORγt (Homo sapiens)" category_label="class 1"
line_notation=CC(C)(C)n1ncc(-c2nc(CC(=O)NCc3cccnc3)cs2)c1-c1ccc(F)cc1 target_system="RORγt (Homo sapiens)" category_label="class 0"
